- system_name: Glycogen synthase kinase-3 alpha (Homo sapiens) (UniProt P49840);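 also: values are mean inhibition of GSK3A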
- Sequence (P49840 2-483 limits assumed): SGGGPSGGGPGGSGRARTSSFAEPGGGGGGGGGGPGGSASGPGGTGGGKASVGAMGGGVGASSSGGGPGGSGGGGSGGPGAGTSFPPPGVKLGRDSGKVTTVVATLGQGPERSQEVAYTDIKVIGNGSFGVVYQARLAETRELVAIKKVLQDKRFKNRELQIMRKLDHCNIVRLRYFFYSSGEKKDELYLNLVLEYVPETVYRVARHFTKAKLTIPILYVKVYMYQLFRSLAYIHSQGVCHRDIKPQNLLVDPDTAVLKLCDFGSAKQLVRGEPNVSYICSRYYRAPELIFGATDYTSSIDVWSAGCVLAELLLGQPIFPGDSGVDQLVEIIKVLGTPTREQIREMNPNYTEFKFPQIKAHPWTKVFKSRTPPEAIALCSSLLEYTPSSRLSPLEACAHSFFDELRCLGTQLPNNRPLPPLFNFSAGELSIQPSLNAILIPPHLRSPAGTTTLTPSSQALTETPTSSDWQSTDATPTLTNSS
- test_conditions: at 0.1 µM
Each entry gets not satisfied if its inhibition stays under 6%, and satisfied if its inhibition is 6% or above.

Illustrative cases are given below, each with its answer.
| given_smiles | class_label |
| --- | --- |
| Fc1cccc(COc2ccc(Nc3ncnc4sc(-c5ccco5)cc34)cc2Cl)c1 | not satisfied |
| c1cc(-c2cnn3nc(N4CCOCC4)ccc23)nc(NC2CC2)n1 | not satisfied |
| CCc1nn2ncccc2c1-c1ccnc(NC2CC2)n1 | satisfied |
| COc1cc(/C=N/Nc2ncnc3[nH]ncc23)ccc1O | satisfied |
| CNC(=O)c1cncc(/C=C/c2ccccc2Cl)c1 | not satisfied |

Query string: Does COc1ccc(CNC(=O)c2ccc(-c3cc(-c4nnc(C)o4)ccc3C)cc2)cc1 have a reported inhibition of at least 6%?
Result string: not satisfied

Query string: Let us now turn to Cc1cccc(Nc2ncc(-c3ccccc3)o2)c1
Result string: not satisfied

Query string: Let us now turn to CN1CCC(n2cnc(-c3ccc(F)cc3)c2-c2ccnc(Nc3ccccc3)n2)CC1
Result string: not satisfied

Query string: Let us now turn to CCN(CC)S(=O)(=O)c1ccc(OC)c(Nc2ncc(-c3ccccc3)o2)c1
Result string: not satisfied

Query string: Let us now turn to CCn1c(-c2nonc2N)nc2ccccc21
Result string: not satisfied

Query string: Let us now turn to CC(C)COC(=O)c1ccc2c(c1)/C(=C/Nc1ccc(S(N)(=O)=O)cc1)C(=O)N2
Result string: satisfied
